Readout Type: melting point

[ask] Item under review: S=C(NCCc1ccc(Cl)cc1)Nc1ccc(Br)cn1 . Reported melting point?
[reply] 180 to 183 °C

[ask] Item under review: COc1ccc(CCNC(=S)Nc2ccc(Br)cn2)cc1 . Reported melting point?
[reply] 178 to 179 °C

[ask] Item under review: COc1ccc(OC)c(CCNC(=S)Nc2ccc(Br)cn2)c1 . Reported melting point?
[reply] 133 to 138 °C

[ask] Item under review: Fc1ccccc1CCNC(=S)Nc1ccc(Br)cn1 . Reported melting point?
[reply] 156 to 157 °C

* * *

- Test system: HIV-1 strain HTLVIIIB
- Test Name: p24 enzyme immunoassay of HIV replication in HTLVIIIB-infected peripheral blood mononuclear cells
- Assay type: cell-based
- Assay Context: Table 4; HTLVIIIB-infected peripheral blood mononuclear cells; read-out: IC50 [p24]
Readout Type: pIC50
Note on pIC50: it is the negative log10 of concentration, concentration in mol/L.

[ask] Tell me reported pIC50 for Cc1cn([C@H]2C[C@H](N=[N+]=[N-])[C@@H](CO)O2)c(=O)[nH]c1=O [AZT, reference compound] , tested with HIV-1 strain HTLVIIIB.
[reply] 7.40

* * *

Readout Type: melting point

[ask] Item under review: S=C(NCCc1cccc(Cl)c1)Nc1ccc(Br)cn1 . Reported melting point?
[reply] 163 to 165 °C

[ask] Item under review: COc1ccccc1CCNC(=S)Nc1ccc(Br)cn1 . Reported melting point?
[reply] 143 to 145 °C

[ask] Item under review: S=C(NCCc1ccccc1Cl)Nc1ccc(Br)cn1 . Reported melting point?
[reply] 137 to 139 °C

[ask] Item under review: COc1cccc(CCNC(=S)Nc2ccc(Br)cn2)c1 . Reported melting point?
[reply] 155 to 156 °C

[ask] Item under review: Fc1cccc(CCNC(=S)Nc2ccc(Br)cn2)c1 . Reported melting point?
[reply] 171 to 172 °C

[ask] Item under review: Fc1ccc(CCNC(=S)Nc2ccc(Br)cn2)cc1 . Reported melting point?
[reply] 177 to 178 °C

* * *

- Assay System: recombinant HIV-1 reverse transcriptase (rRT) (Human immunodeficiency virus type 1 group M subtype B, UniProt P04585)
- Test Name: Quan-T-RT cell-free assay of recombinant HIV-1 reverse transcriptase activity
- Type: biochemical
Exercise: state measured pIC50 for each of the molecules provided.
Note on pIC50: it is the negative log10 of concentration, concentration in mol/L.

[ask] Item under review: S=C(NCCc1ccccc1Cl)Nc1ccc(Br)cn1 [II-3] . Reported pIC50?
[reply] 6.15

[ask] Item under review: COc1ccccc1CCNC(=S)Nc1ccc(Br)cn1 [II-1] . Reported pIC50?
[reply] 6.00

[ask] Item under review: COc1cccc(CCNC(=S)Nc2ccc(Br)cn2)c1 [II-4] . Reported pIC50?
[reply] 6.40

[ask] Item under review: Fc1cccc(CCNC(=S)Nc2ccc(Br)cn2)c1 [II-5] . Reported pIC50?
[reply] 6.15

[ask] Item under review: Fc1ccccc1CCNC(=S)Nc1ccc(Br)cn1 [II-2] . Reported pIC50?
[reply] 6.22

* * *

Exercise: state measured pIC50 for each of the compounds provided.
- Tested on: HIV-1 strain HTLVIIIB
- Test Name: p24 enzyme immunoassay of HIV replication in HTLVIIIB-infected peripheral blood mononuclear cells
- Format: cell-based
- Assay Context: Human immunodeficiency virus 1, PBMC; Table 6; read-out: IC50 p24
Note on pIC50: it is the negative log10 of concentration, concentration in mol/L.

[ask] Item under review: COc1cccc(CCNC(=S)Nc2ccc(Br)cn2)c1 [II-4] . Reported pIC50?
[reply] 8.52

[ask] Item under review: COc1ccc(CCNC(=S)Nc2ccc(Br)cn2)cc1 [II-7] . Reported pIC50?
[reply] 7.82

[ask] Item under review: COc1ccccc1CCNC(=S)Nc1ccc(Br)cn1 [II-1] . Reported pIC50?
[reply] 8.00
